test name: total protein half-life in vivo (active degradation + dilution); higher = more stable protein
condition info: wild type E. coli NCM3722; growth: P-lim chemostat; doubling time 12 h
This section presents sequences with their documented total protein half-life in vivo values.
observable: total protein half-life in vivo (h)

[[record]]
sequence_chain = "MALPILLDCDPGHDDAIAIVLALASPELDVKAITSSAGNQTPEKTLRNVLRMLTLLNRTDIPVAGGAVKPLMRELIIADNVHGESGLDGPALPEPTFAPQNCTAVELMAKTLRESAEPVTIVSTGPQTNVALLLNSHPELHSKIARIVIMGGAMGLGNWTPAAEFNIYVDPEAAEIVFQSGIPVVMAGLDVTHKAQIHVEDTERFRAIGNPVSTIVAELLDFFLEYHKDEKWGFVGAPLHDPCTIAWLLKPELFTSVERWVGVETQGKYTQGMTVVDYYYLTGNKPNATVMVDVDRQGFVDLLADRLKFYA"
endpoint_value = 11.3

[[record]]
sequence_chain = "MLIRVEIPIDAPGIDALLRRSFESDAEAKLVHDLREDGFLTLGLVATDDEGQVIGYVAFSPVDVQGEDLQWVGMAPLAVDEKYRGQGLARQLVYEGLDSLNEFGYAAVVTLGDPALYSRFGFELAAHHDLRCRWPGTESAFQVHRLADDALNGVTGLVEYHEHFNRF"
endpoint_value = 11.7


* * *

test name: total protein half-life in vivo (active degradation + dilution); higher = more stable protein
condition info: wild type E. coli NCM3722; growth: C-lim chemostat; doubling time 3 h
Quick reference: total protein half-life in vivo of the listed items.
observable: total protein half-life in vivo (h)

[[record]]
sequence_chain = "MSHLAELVASAKAAISQASDVAALDNVRVEYLGKKGHLTLQMTTLRELPPEERPAAGAVINEAKEQVQQALNARKAELESAALNARLAAETIDVSLPGRRIENGGLHPVTRTIDRIESFFGELGFTVATGPEIEDDYHNFDALNIPGHHPARADHDTFWFDTTRLLRTQTSGVQIRTMKAQQPPIRIIAPGRVYRNDYDQTHTPMFHQMEGLIVDTNISFTNLKGTLHDFLRNFFEEDLQIRFRPSYFPFTEPSAEVDVMGKNGKWLEVLGCGMVHPNVLRNVGIDPEVYSGFAFGMGMERLTMLRYGVTDLRSFFENDLRFLKQFK"
endpoint_value = 3.49

[[record]]
sequence_chain = "MLYIFDLGNVIVDIDFNRVLGAWSDLTRIPLASLKKSFHMGEAFHQHERGEISDEAFAEALCHEMALPLSYEQFSHGWQAVFVALRPEVIAIMHKLREQGHRVVVLSNTNRLHTTFWPEEYPEIRDAADHIYLSQDLGMRKPEARIYQHVLQAEGFSPSDTVFFDDNADNIEGANQLGITSILVKDKTTIPDYFAKVLC [P0A8Y3]"
endpoint_value = 2.92

[[record]]
sequence_chain = "MTEAQRHQILLEMLAQLGFVTVEKVVERLGISPATARRDINKLDESGKLKKVRNGAEAITQQRPRWTPMNLHQAQNHDEKVRIAKAASQLVNPGESVVINCGSTAFLLGREMCGKPVQIITNYLPLANYLIDQEHDSVIIMGGQYNKSQSITLSPQGSENSLYAGHWMFTSGKGLTAEGLYKTDMLTAMAEQKMLSVVGKLVVLVDSSKIGERAGMLFSRADQIDMLITGKNANPEILQQLEAQGVSILRV [P0A9W0]"
endpoint_value = 3.08


FYI, the data here is from the supplement of paper PMC11246515.
